# protocol.summary: in vivo
# Design: species or system Beagle Dogs
# run.parameters: both sexes, Beagle, dog, po, 20 mg/kg, Cmax of EX-2/CH2101
metric: Cmax
Just so you know, I need the unit written after the number.

Ask | Which value of Cmax has been reported for CC(=O)ONc1ccn([C@@H]2O[C@H](CO)[C@@H](O)[C@H]2O)c(=O)n1 [EX-2] in the records?
Reply | 12.8 ng/mL

* * *

# protocol.summary: Microsome stability
# Format: in vitro ADME, Monkey
# run.parameters: monkey, microsomes, pH 7.4
metric: half-life at 1 µM

Ask | Which value of half-life at 1 µM has been reported for CC(=O)ONc1ccn([C@@H]2O[C@H](CO)[C@@H](O)[C@H]2O)c(=O)n1 in the records?
Reply | 50.8 min

Ask | Query CC(C)C(=O)ONc1ccn([C@@H]2O[C@H](CO)[C@@H](O)[C@H]2O)c(=O)n1 next
Reply | 4.4 min

Ask | Query COC(C)(C)C(=O)ONc1ccn([C@@H]2O[C@H](CO)[C@@H](O)[C@H]2O)c(=O)n1 next
Reply | 7.3 min

Ask | Query O=C(ONc1ccn([C@@H]2O[C@H](CO)[C@@H](O)[C@H]2O)c(=O)n1)C1CC1 next
Reply | 25 min

From: patent US20250034196A1
